The measured values listed here are drawn from paper PMC6133161.

# Test system: Toxoplasma gondii RH strain
# run description: [3H]-uracil incorporation assay in VERO host cells
# run parameters: Toxoplasma gondii, Vero, read-out: IC50 anti-Tg
property: IC50 (µg/mL)

>>> observed_result("Nc1ccc(S(=O)(=O)Nc2ncccn2)cc1 [Sulfadiazine, reference compound]")
936
>>> observed_result("N#Cc1ccc(-c2csc(N/N=C/C3CC3)n2)cc1")
30.1
>>> observed_result("O=[N+]([O-])c1ccc(-c2csc(N/N=C/C3CC3)n2)cc1")
21.8
>>> observed_result("Fc1ccc(-c2csc(N/N=C/C3CC3)n2)cc1")
18.1

###

property: melting point

>>> observed_result("Brc1ccc(-c2csc(N/N=C/C3CC3)n2)cc1")
"165 to 167 °C"
>>> observed_result("Clc1ccc(-c2csc(N/N=C/C3CC3)n2)cc1")
"162 to 163 °C"
>>> observed_result("[N-]=[N+]=Nc1ccc(-c2csc(N/N=C/C3CC3)n2)cc1")
"124 to 126 °C"
>>> observed_result("COc1ccc(-c2csc(N/N=C/C3CC3)n2)cc1")
"149 to 152 °C"
>>> observed_result("FC(F)(F)c1ccc(-c2csc(N/N=C/C3CC3)n2)cc1")
"132 to 134 °C"

###

Measured MFC accompanies every entry in the list below.
# Test system: C. parapsilosis
# run description: Broth microdilution MIC/MFC, clinical isolate
# Assay type: cell-based
# run parameters: Lodderomyces parapsilosis; C. parapsilosis clinical strain; read-out: MFC
property: MFC (mg/L)

>>> observed_result("Fc1ccc(-c2csc(N/N=C/C3CC3)n2)c(F)c1 [Compound 3g]")
1.95
>>> observed_result("Clc1ccc(-c2csc(N/N=C/C3CC3)n2)cc1 [Compound 3c]")
0.12
>>> observed_result("Fc1ccc(-c2csc(N/N=C/C3CC3)n2)cc1 [Compound 3a]")
7.81
>>> observed_result("Brc1ccc(-c2csc(N/N=C/C3CC3)n2)cc1 [Compound 3b]")
0.12
>>> observed_result("[N-]=[N+]=Nc1ccc(-c2csc(N/N=C/C3CC3)n2)cc1 [Compound 3i]")
0.98
>>> observed_result("Cc1ccc(-c2csc(N/N=C/C3CC3)n2)cc1 [Compound 3d]")
0.24
>>> observed_result("N#Cc1ccc(-c2csc(N/N=C/C3CC3)n2)cc1 [Compound 3h]")
31.2
>>> observed_result("O=[N+]([O-])c1ccc(-c2csc(N/N=C/C3CC3)n2)cc1 [Compound 3j]")
1.95
>>> observed_result("COc1ccc(-c2csc(N/N=C/C3CC3)n2)cc1 [Compound 3f]")
0.98

###

Listing of entries alongside the reported MIC.
# System: Candida krusei ATCC 14243
# run description: Broth microdilution MIC/MFC, reference strain
# Assay type: cell-based
# run parameters: Pichia kudriavzevii, ATCC14243; C. krusei ATCC 14243; read-out: MIC
property: MIC (µg/mL)

>>> observed_result("O=[N+]([O-])c1ccc(-c2csc(N/N=C/C3CC3)n2)cc1")
0.98
>>> observed_result("Clc1ccc(-c2csc(N/N=C/C3CC3)n2)cc1")
0.12
>>> observed_result("Fc1ccc(-c2csc(N/N=C/C3CC3)n2)c(F)c1")
7.81
>>> observed_result("N#Cc1ccc(-c2csc(N/N=C/C3CC3)n2)cc1")
0.98
>>> observed_result("Cc1ccc(-c2csc(N/N=C/C3CC3)n2)cc1")
0.06
>>> observed_result("COc1ccc(-c2csc(N/N=C/C3CC3)n2)cc1")
0.48
>>> observed_result("Brc1ccc(-c2csc(N/N=C/C3CC3)n2)cc1")
0.24
>>> observed_result("Fc1ccc(-c2csc(N/N=C/C3CC3)n2)cc1")
3.91
>>> observed_result("[N-]=[N+]=Nc1ccc(-c2csc(N/N=C/C3CC3)n2)cc1")
0.48

###

# System: Candida albicans ATCC 2091
# run description: Broth microdilution MIC/MFC, reference strain
# Format: cell-based
# run parameters: Candida albicans, ATCC2091; C. albicans ATCC 2091; read-out: MFC
Listed next: entries and their corresponding MFC.
property: MFC (µg/mL)

>>> observed_result("Clc1ccc(-c2csc(N/N=C/C3CC3)n2)cc1")
0.48
>>> observed_result("Cc1ccc(-c2csc(N/N=C/C3CC3)n2)cc1")
1.95
>>> observed_result("Fc1ccc(-c2csc(N/N=C/C3CC3)n2)c(F)c1")
1.95
>>> observed_result("Brc1ccc(-c2csc(N/N=C/C3CC3)n2)cc1")
0.98
>>> observed_result("COc1ccc(-c2csc(N/N=C/C3CC3)n2)cc1")
1.95
>>> observed_result("N#Cc1ccc(-c2csc(N/N=C/C3CC3)n2)cc1")
3.91
>>> observed_result("[N-]=[N+]=Nc1ccc(-c2csc(N/N=C/C3CC3)n2)cc1")
3.91
>>> observed_result("Fc1ccc(-c2csc(N/N=C/C3CC3)n2)cc1")
3.91
>>> observed_result("O=[N+]([O-])c1ccc(-c2csc(N/N=C/C3CC3)n2)cc1")
7.81

###

# Tested on: Candida krusei ATCC 14243
# run description: Broth microdilution MIC/MFC, reference strain
# Assay type: cell-based
# run parameters: Pichia kudriavzevii, ATCC14243; C. krusei ATCC 14243; read-out: MFC
Quick reference: log10 of MFC of the listed items.
property: log10 of MFC (log10 of the value in µg/mL)

>>> observed_result("Cc1ccc(-c2csc(N/N=C/C3CC3)n2)cc1")
-0.32
>>> observed_result("Fc1ccc(-c2csc(N/N=C/C3CC3)n2)cc1")
1.19
>>> observed_result("Brc1ccc(-c2csc(N/N=C/C3CC3)n2)cc1")
-0.01
>>> observed_result("N#Cc1ccc(-c2csc(N/N=C/C3CC3)n2)cc1")
0.29
>>> observed_result("Fc1ccc(-c2csc(N/N=C/C3CC3)n2)c(F)c1")
1.49

###

# Tested on: C. krusei
# run description: Broth microdilution MIC/MFC, clinical isolate
# Type: cell-based
# run parameters: Pichia kudriavzevii; C. krusei clinical strain; read-out: MFC
For each record, check the reported MFC: if it is below 1 µg/mL write Satisfied, else write Not satisfied.

>>> category("O=[N+]([O-])c1ccc(-c2csc(N/N=C/C3CC3)n2)cc1")
"Satisfied"
>>> category("Fc1ccc(-c2csc(N/N=C/C3CC3)n2)cc1")
"Not satisfied"
>>> category("Clc1ccc(-c2csc(N/N=C/C3CC3)n2)cc1")
"Satisfied"
>>> category("Fc1ccc(-c2csc(N/N=C/C3CC3)n2)c(F)c1")
"Satisfied"
>>> category("COc1ccc(-c2csc(N/N=C/C3CC3)n2)cc1")
"Satisfied"
>>> category("N#Cc1ccc(-c2csc(N/N=C/C3CC3)n2)cc1")
"Not satisfied"
>>> category("[N-]=[N+]=Nc1ccc(-c2csc(N/N=C/C3CC3)n2)cc1")
"Not satisfied"
>>> category("Brc1ccc(-c2csc(N/N=C/C3CC3)n2)cc1")
"Satisfied"

###

# Tested on: C. albicans
# run description: Broth microdilution MIC/MFC, clinical isolate
# Format: cell-based
# run parameters: Candida albicans; C. albicans clinical strain; read-out: MFC
Form field: MFC (one value per entry).
property: MFC (µg/mL)

>>> observed_result("O=[N+]([O-])c1ccc(-c2csc(N/N=C/C3CC3)n2)cc1")
0.48
>>> observed_result("[N-]=[N+]=Nc1ccc(-c2csc(N/N=C/C3CC3)n2)cc1")
15.6
>>> observed_result("COc1ccc(-c2csc(N/N=C/C3CC3)n2)cc1")
0.98
>>> observed_result("Clc1ccc(-c2csc(N/N=C/C3CC3)n2)cc1")
0.98
>>> observed_result("Fc1ccc(-c2csc(N/N=C/C3CC3)n2)cc1")
3.91

###

# System: Toxoplasma gondii RH strain
# run description: [3H]-uracil incorporation assay in VERO host cells
# run parameters: Toxoplasma gondii, Vero, read-out: Proliferation of Toxoplasma gondii RH strain ± SD
// reported activity at 1.95 µg/mL for each item listed
property: activity at 1.95 µg/mL (%)

>>> observed_result("Fc1ccc(-c2csc(N/N=C/C3CC3)n2)c(F)c1 [Compound 3g]")
91.8
>>> observed_result("Fc1ccc(-c2csc(N/N=C/C3CC3)n2)cc1 [Compound 3a]")
97.9
>>> observed_result("N#Cc1ccc(-c2csc(N/N=C/C3CC3)n2)cc1 [Compound 3h]")
83.3
>>> observed_result("FC(F)(F)c1ccc(-c2csc(N/N=C/C3CC3)n2)cc1 [Compound 3e]")
100
>>> observed_result("Cc1ccc(-c2csc(N/N=C/C3CC3)n2)cc1 [Compound 3d]")
100
>>> observed_result("Brc1ccc(-c2csc(N/N=C/C3CC3)n2)cc1 [Compound 3b]")
99.3
>>> observed_result("Clc1ccc(-c2csc(N/N=C/C3CC3)n2)cc1 [Compound 3c]")
108
>>> observed_result("O=[N+]([O-])c1ccc(-c2csc(N/N=C/C3CC3)n2)cc1 [Compound 3j]")
94.4
>>> observed_result("COc1ccc(-c2csc(N/N=C/C3CC3)n2)cc1 [Compound 3f]")
84.2
>>> observed_result("[N-]=[N+]=Nc1ccc(-c2csc(N/N=C/C3CC3)n2)cc1 [Compound 3i]")
93.3
